ASSAY DETAILS: qHTS of pediatric cancer cell lines to identify multiple opportunities for drug repurposing: Primary screen for U-2 OS cells (AID 1347096); note: nearly all actives have a fitted effect of over 50% in size
CONDITION DESCRIPTION: U-2 OS viability, CellTiter-Glo luminescence, 48 h; series mostly up to 46 µM
Records with an inconclusive call do not appear. Calls of active or inactive are those of the source. Calls come from the whole dose curve; as a rule, active = well fitted cell-killing curve with a large enough effect; inconclusive = small, poorly fitted or top-dose-only effect; inactive = flat fitted curve, though single readings scatter.
Pick one and only one: active, inactive

Examples with answers:
[
  {
    "COMPOUND": "CCCCCCCCCCCCCCCCO",
    "DISCRETE LABEL": "inactive"
  },
  {
    "COMPOUND": "CC(C(=O)O)c1cccc(Oc2ccccc2)c1 (configuration not stated)",
    "DISCRETE LABEL": "inactive"
  },
  {
    "COMPOUND": "COc1cc(C(=O)NCc2ccc(OCCN(C)C)cc2)cc(OC)c1OC",
    "DISCRETE LABEL": "inactive"
  },
  {
    "COMPOUND": "NC(=O)C1(N2CCCCC2)CCN(CCCC(=O)c2ccc(F)cc2)CC1",
    "DISCRETE LABEL": "inactive"
  },
  {
    "COMPOUND": "CN(C)C(=O)Nc1ccc(Cl)c(Cl)c1",
    "DISCRETE LABEL": "inactive"
  }
]

Qu. Record request — test call for `CC(C)[C@@H]1CC[C@@H](C)CC1=O`
Ans. inactive

Qu. Record request — test call for CCCCC(CC)CN1CN(CC(CC)CCCC)CC(C)(N)C1 (configuration not stated)
Ans. inactive

Qu. Record request — test call for `Nc1nc(Cl)nc2c1ncn2[C@@H]1O[C@H](CO)[C@@H](O)[C@@H]1F`
Ans. inactive

Qu. Record request — test call for `CCN(CC)CCNC(=O)COc1ccc(OC)cc1`
Ans. inactive

Qu. Record request — test call for `CC(C)n1c(/C=C/[C@@H](O)C[C@@H](O)CC(=O)O)c(-c2ccc(F)cc2)c2ccccc21`
Ans. active

Qu. Record request — test call for `Cc1cccc(C)c1NC(=O)CN1CCCC1`
Ans. inactive

Qu. Record request — test call for CC(C)[N+](C)(C)CC(O)COc1cccc2ccccc12 (configuration not stated)
Ans. inactive
